Molecular target: T1, full-length human 14-3-3τ fused to the C terminus of MBP (human, UniProt P27348 1-245)
T1 chain: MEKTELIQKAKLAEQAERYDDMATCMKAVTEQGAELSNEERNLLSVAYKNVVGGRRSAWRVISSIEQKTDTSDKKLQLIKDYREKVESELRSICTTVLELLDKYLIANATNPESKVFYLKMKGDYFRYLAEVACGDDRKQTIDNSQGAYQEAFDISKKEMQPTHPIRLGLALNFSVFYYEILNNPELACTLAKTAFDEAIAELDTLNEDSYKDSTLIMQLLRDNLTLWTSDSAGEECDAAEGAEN
Experiment: FP
Non-standard residues stand in square brackets, D forms with d. No end group written: not given here. *: point of attachment. FITC = O=C1OC2(c3ccc(O)cc3Oc3cc(O)ccc32)c2ccc(NC(=S)*)cc21; Biotin = O=C1N[C@H]2[C@H](CS[C@H]2CCCCC(=O)*)N1; pT = C[C@@H](OP(=O)(O)O)[C@H](N)C(=O)O; ttds = NCCCOCCOCCOCCCNC(=O)CCC(=O)*; pS = N[C@@H](COP(=O)(O)O)C(=O)O
# key: entry, value: log10 Kd
Friendly reminder: values = log10 of Kd, unit µM.

// worked examples, log10 Kd included
{Biotin-ttds}-RRVRKLPST[pT]L [RSK1 phospho-PBM peptide RSK1_-1P] = -0.11
{Biotin-ttds}-SSRTRRE[pT]QL [HPV16 E6 phospho-PBM peptide p16E6] = 2.16
{Biotin-ttds}-RLQRRRE[pT]QV [HPV18 E6 phospho-PBM peptide p18E6] = 1.58
{FITC}-WLRRA[pS]APLPGLK [fluorescently labeled HSPB6 phosphopeptide (fpB6)] = 0.95

Need log10 Kd of {Biotin-ttds}-RRVRKLPS[pT]TL [RSK1 phospho-PBM peptide RSK1_-2P] , thanks. -0.35
